Tested on: Trichophyton mentagrophytes
protocol.text: Antifungal activity against recultured Trichophyton mentagrophytes by serial plate dilution method
Format: functional
parameter.measured: MIC (µg/mL)
Return type: number; implicit unit µg/mL.

In the examples that follow, each entry is paired with its recorded MIC.
1. FC(F)(F)c1cccc2c(N3CCN(C4CCCCC4)CC3)c(-c3nnc(S)n3-c3ccccc3)cnc12 | 50
2. COCCn1c(S)nnc1-c1cnc2c(C(F)(F)F)cccc2c1Cl | 12.5
3. OCCCC1CCN(c2c(-c3nnc(S)n3Cc3ccccc3)cnc3c(C(F)(F)F)cccc23)CC1 | 12.5

Identify measured MIC associated with Oc1c(-c2nnc(S)n2-c2ccccc2)cnc2c(C(F)(F)F)cccc12
6.25

Output measured MIC for this item: COCCn1c(S)nnc1-c1cnc2c(C(F)(F)F)cccc2c1N1CCN(C2CCCCC2)CC1
6.25

Read off the recorded MIC for FC(F)(F)c1cccc2c(Cl)c(-c3nnc(S)n3-c3ccccc3)cnc12
6.25

Please look at this molecule and report its MIC: FC(F)(F)c1cccc2c(N3CCN(C4CCCCC4)CC3)c(-c3nnc(S)n3Cc3ccccc3)cnc12
50

Give reported MIC value for FC(F)(F)c1cccc2c(NC3CCCCC3)c(-c3nnc(S)n3-c3ccccc3)cnc12
6.25

* * *

Test system: Aspergillus fumigatus
protocol.text: Antifungal activity against Aspergillus fumigatus NCIM 902 by serial plate dilution method
Assay type: functional
A collection of compounds and their measured MIC
Respond with the bare value in µg/mL.

Use the examples below as a reference point.
1) COCCn1c(S)nnc1-c1cnc2c(C(F)(F)F)cccc2c1NCCC(C)(C)C | 6.25
2) FC(F)(F)c1cccc2c(N3CCN(C4CCCCC4)CC3)c(-c3nnc(S)n3-c3ccccc3)cnc12 | 50

Please report the measured MIC for COCCn1c(S)nnc1-c1cnc2c(C(F)(F)F)cccc2c1N1CC(C)OC(C)C1 (stereo not given)
6.25

Give me measured MIC, please, for this compound: CC(C)N1CCN(c2c(-c3nnc(S)n3-c3ccccc3)cnc3c(C(F)(F)F)cccc23)CC1
50

Entry COCCn1c(S)nnc1-c1cnc2c(C(F)(F)F)cccc2c1Cl needs its MIC filled in; supply it.
12.5

* * *

System: Talaromyces marneffei
protocol.text: Antifungal activity against recultured Penicillium marneffei at MIC after 3 to 4 days by agar well diffusion method
Format: functional
parameter.measured: inhibition zone (IZ) (mm)
State the answer as a number, implicitly in mm.

Known results for molecules:
1. FC(F)(F)c1cccc2c(N3CCC(N4CCOCC4)CC3)c(-c3nnc(S)n3-c3ccccc3)cnc12 | 16
2. FC(F)(F)c1cccc2c(NC3CC3)c(-c3nnc(S)n3Cc3ccccc3)cnc12 | 16

Let me know recorded inhibition zone (IZ) for OCCCC1CCN(c2c(-c3nnc(S)n3Cc3ccccc3)cnc3c(C(F)(F)F)cccc23)CC1 , thanks.
10

Please indicate inhibition zone (IZ) recorded for COCCn1c(S)nnc1-c1cnc2c(C(F)(F)F)cccc2c1O
16

Read off the recorded inhibition zone (IZ) for COCCn1c(S)nnc1-c1cnc2c(C(F)(F)F)cccc2c1N1CCOCC1
16

Report measured inhibition zone (IZ); entry is CC(C)(C)CCNc1c(-c2nnc(S)n2-c2ccccc2)cnc2c(C(F)(F)F)cccc12
16

Read off the recorded inhibition zone (IZ) for COCCn1c(S)nnc1-c1cnc2c(C(F)(F)F)cccc2c1N1CC(C)OC(C)C1 (centres undefined)
16

Look up inhibition zone (IZ) of COCCn1c(S)nnc1-c1cnc2c(C(F)(F)F)cccc2c1NCCC(C)(C)C and report it.
16

Please report the measured inhibition zone (IZ) for FC(F)(F)c1cccc2c(Cl)c(-c3nnc(S)n3-c3ccccc3)cnc12
16

Identify measured inhibition zone (IZ) associated with FC(F)(F)c1cccc2c(NC3CCCCC3)c(-c3nnc(S)n3-c3ccccc3)cnc12
16

Dear colleague, please send me the reported inhibition zone (IZ) for Oc1c(-c2nnc(S)n2-c2ccccc2)cnc2c(C(F)(F)F)cccc12 when you can.
16

Please list inhibition zone (IZ) recorded for the molecule FC(F)(F)c1cccc2c(NC3CCCCC3)c(-c3nnc(S)n3Cc3ccccc3)cnc12
10

* * *

Measured MIC, listed per entry.
Test system: Klebsiella pneumoniae
protocol.text: Antibacterial activity against recultured Klebsiella pneumoniae after 16 to 18 hrs by serial plate dilution method
Assay type: functional
Express it in µg/mL; write the number only.

Previously resolved entries follow.
1. FC(F)(F)c1cccc2c(NC3CCCCC3)c(-c3nnc(S)n3-c3ccccc3)cnc12 | 6.25
2. Oc1c(-c2nnc(S)n2-c2ccccc2)cnc2c(C(F)(F)F)cccc12 | 6.25

For Klebsiella pneumoniae, give MIC of the listed compound: O=C(O)c1cn(C2CC2)c2cc(N3CCNCC3)c(F)cc2c1=O [CIPROFLOXACIN]
6.25

Lab note: Klebsiella pneumoniae assay, enter MIC for COCCn1c(S)nnc1-c1cnc2c(C(F)(F)F)cccc2c1Cl here
12.5

# return MIC of Oc1c(-c2nnc(S)n2Cc2ccccc2)cnc2c(C(F)(F)F)cccc12 (system: Klebsiella pneumoniae)
50

Write down the reported MIC (system: Klebsiella pneumoniae) of FC(F)(F)c1cccc2c(N3CCN(C4CCCCC4)CC3)c(-c3nnc(S)n3Cc3ccccc3)cnc12
50

* * *

Tested on: Escherichia coli
protocol.text: Antibacterial activity against Escherichia coli ATCC 25922 after 16 to 18 hrs by serial plate dilution method
Format: functional
Quick reference for MIC among some compounds
Answer with a number only, understood to be in µg/mL.

Some solved cases for reference:
1) OCCCC1CCN(c2c(-c3nnc(S)n3-c3ccccc3)cnc3c(C(F)(F)F)cccc23)CC1 | 12.5
2) FC(F)(F)c1cccc2c(N3CCOCC3)c(-c3nnc(S)n3Cc3ccccc3)cnc12 | 12.5
3) FC(F)(F)c1cccc2c(NC3CC3)c(-c3nnc(S)n3Cc3ccccc3)cnc12 | 6.25
4) CC(C)N1CCN(c2c(-c3nnc(S)n3-c3ccccc3)cnc3c(C(F)(F)F)cccc23)CC1 | 6.25
5) CC(C)(C)CCNc1c(-c2nnc(S)n2Cc2ccccc2)cnc2c(C(F)(F)F)cccc12 | 12.5
6) FC(F)(F)c1cccc2c(N3CCN(C4CCCCC4)CC3)c(-c3nnc(S)n3-c3ccccc3)cnc12 | 6.25

Jot down MIC (Escherichia coli) of COCCn1c(S)nnc1-c1cnc2c(C(F)(F)F)cccc2c1N1CCN(C2CCCCC2)CC1 .
6.25

For Escherichia coli, give the measured MIC of the entry FC(F)(F)c1cccc2c(NC3CCCCC3)c(-c3nnc(S)n3Cc3ccccc3)cnc12
12.5

* * *

System: Talaromyces marneffei
protocol.text: Antifungal activity against recultured Penicillium marneffei at MIC after 3 to 4 days by agar well diffusion method
Format: functional
# inhibition zone (IZ) annotations

Please review the following examples before continuing.
1. CCN1CCN(c2c(-c3nnc(S)n3CCOC)cnc3c(C(F)(F)F)cccc23)CC1 | <10 mm
2. Oc1c(-c2nnc(S)n2Cc2ccccc2)cnc2c(C(F)(F)F)cccc12 | <10 mm

Proceed to the following item.
Look up and state reported inhibition zone (IZ) for FC(F)(F)c1cccc2c(N3CCN(C4CCCCC4)CC3)c(-c3nnc(S)n3-c3ccccc3)cnc12
<10 mm

* * *

System: Trichophyton mentagrophytes
protocol.text: Antifungal activity against recultured Trichophyton mentagrophytes by serial plate dilution method
Type: functional
MIC by entry:
Put your answer as a value accompanied by its unit after it.

Return value of MIC for input OCCCC1CCN(c2c(-c3nnc(S)n3-c3ccccc3)cnc3c(C(F)(F)F)cccc23)CC1 , no commentary.
50 µg/mL

Hello, please tell me recorded MIC for this one: FC(F)(F)c1cccc2c(NC3CC3)c(-c3nnc(S)n3Cc3ccccc3)cnc12
6.25 µg/mL

Fill in reported MIC for this entry: COCCn1c(S)nnc1-c1cnc2c(C(F)(F)F)cccc2c1N1CC(C)OC(C)C1 (stereo unspecified)
6.25 µg/mL

Quote MIC reported for COCCn1c(S)nnc1-c1cnc2c(C(F)(F)F)cccc2c1O please.
6.25 µg/mL

Return MIC for the following molecule: FC(F)(F)c1cccc2c(NC3CCCCC3)c(-c3nnc(S)n3Cc3ccccc3)cnc12
12.5 µg/mL

Consider the molecule FC(F)(F)c1cccc2c(NC3CC3)c(-c3nnc(S)n3-c3ccccc3)cnc12 . State its measured MIC.
6.25 µg/mL

* * *

Each entry below lists one item and its recorded MIC value.
Tested on: Escherichia coli
protocol.text: Antibacterial activity against Escherichia coli ATCC 25922 after 16 to 18 hrs by serial plate dilution method
Assay type: functional
// note: answer is a bare numeric in µg/mL

1) Oc1c(-c2nnc(S)n2-c2ccccc2)cnc2c(C(F)(F)F)cccc12 | 6.25
2) COCCn1c(S)nnc1-c1cnc2c(C(F)(F)F)cccc2c1N1CC(C)OC(C)C1 (stereo unspecified) | 6.25
3) FC(F)(F)c1cccc2c(N3CCOCC3)c(-c3nnc(S)n3-c3ccccc3)cnc12 | 6.25
4) COCCn1c(S)nnc1-c1cnc2c(C(F)(F)F)cccc2c1NCCC(C)(C)C | 50
5) COCCn1c(S)nnc1-c1cnc2c(C(F)(F)F)cccc2c1Cl | 6.25

Supply recorded MIC for FC(F)(F)c1cccc2c(Cl)c(-c3nnc(S)n3-c3ccccc3)cnc12 here.
6.25

State, in one line, measured MIC of COCCn1c(S)nnc1-c1cnc2c(C(F)(F)F)cccc2c1N1CCC(CCCO)CC1
6.25

Respond only with MIC recorded for NCCN1CCN(c2c(-c3nnc(S)n3Cc3ccccc3)cnc3c(C(F)(F)F)cccc23)CC1
6.25

Quickly give me recorded MIC for OCCCC1CCN(c2c(-c3nnc(S)n3Cc3ccccc3)cnc3c(C(F)(F)F)cccc23)CC1
12.5

Tell me MIC reported for FC(F)(F)c1cccc2c(NC3CC3)c(-c3nnc(S)n3-c3ccccc3)cnc12
6.25

Return value of MIC for input COCCn1c(S)nnc1-c1cnc2c(C(F)(F)F)cccc2c1NC1CCCCC1 , no commentary.
6.25

Please list MIC recorded for the compound CCN1CCN(c2c(-c3nnc(S)n3CCOC)cnc3c(C(F)(F)F)cccc23)CC1
6.25

Specify reported MIC for the compound shown: COCCn1c(S)nnc1-c1cnc2c(C(F)(F)F)cccc2c1NC1CC1
6.25

Consider the compound COCCn1c(S)nnc1-c1cnc2c(C(F)(F)F)cccc2c1N1CCOCC1 . State its measured MIC.
6.25

Quick one: give measured MIC for COCCn1c(S)nnc1-c1cnc2c(C(F)(F)F)cccc2c1O
6.25

Using known records, supply MIC for Oc1c(-c2nnc(S)n2Cc2ccccc2)cnc2c(C(F)(F)F)cccc12
50
